Molecular target: T1, Human ACVR2A (human, UniProt P27037 20-135, limits assumed); note: test concentration or dose not given here
T1 construct: also called activin receptor, type II A
T1 sequence (P27037 20-135 limits assumed): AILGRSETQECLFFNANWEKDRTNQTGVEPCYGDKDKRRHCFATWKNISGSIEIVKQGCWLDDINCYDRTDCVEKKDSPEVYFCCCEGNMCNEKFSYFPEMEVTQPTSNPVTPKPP
Test: ELISA
Overview of recorded optical density for various binders
Kindly answer with a numeric value in OD, unit omitted.

Example results:
- binder: "368_B07 (antibody, V domains shown) VH: EVQLLESGGGLVQPGGSLRLSCAASGFTFSDYSMNWVRQAPGKGLEWVSNINYNGGYKSYADSVKGRFTISRDNSKNTLYLQMNSLRAEDTAVYYCARSANWHDTALDYWGQGTLVTVSS VL: DIQMTQSPSSLSASVGDRVTITCRASQSIVSYLNWYQQKPGKAPKLLIYAATSLASGVPSRFSGSGSGTDFTLTISSLQPEDFATYYCQQSYSSPLTFGGGTKVEIK"
  optical density, OD: 1.91
- binder: "368_D01 (antibody, V domains shown) VH: EVQLLESGGGLVQPGGSLRLSCAASGFTFSSYGMHWVRQAPGKGLEWVANINYNGGYTSYADSVKGRFTISRDNSKNTLYLQMNSLRAEDTAVYYCARSANWHDTALDYWGQGTLVTVSS VL: DIQMTQSPSSLSASVGDRVTITCRASQSILSYLNWYQQKPGKAPKLVIYAATSRASGVPSRFSGSGSGTDFTLTISSLQPEDFATYYCQQSDSTPLTFGGGTKVEIK"
  optical density, OD: 2.75

Prompt: # get_value(readout='optical density', item= 373_E12 (antibody, V domains shown) VH: EVQLLESGGGLVQPGGSLRLSCAASGFTFSSYSMNWVRQAPGKGLEWVANINYNGGYTGYADSVKGRFTISRDNSKNTLYLQMNSLRAEDTAVYYCARSANWHDTALDYWGQGTLVTVSS VL: DIQMTQSPSSLSASVGDRVTITCRASQSILSYVNWYQQKPGKAPKLVIYAATSRASGVPSRFSGSGSGTDFTLTISSLQPEDFATYYCQQSYDTPLTFGGGTKVEIK )
Completion: 3.63

Prompt: # get_value(readout='optical density', item= 372_F03 (antibody, V domains shown) VH: EVQLLESGGGLVQPGGSLRLSCAASGFTFSSYGMNWVRQAPGKGLEWVAGINYNGGYTSYADSVKGRFTISRDNSKNTLYLQMNSLRAEDTAVYYCARSANWHDTALDYWGQGTLVTVSS VL: DIQMTQSPSSLSASVGDRVTITCRASQSILSYLNWYQQKPGKAPKLVIYAATSRASGVPSRFSGSGSGTDFTLTISSLQPEDFATYYCQQSYDTPLTFGGGTKVEIK )
Completion: 3.19

Prompt: # get_value(readout='optical density', item= 367_C05 (antibody, V domains shown) VH: EVQLLESGGGLVQPGGSLRLSCAASGFTFDDYGMNWVRQAPGKGLEWVSSINYNGGYTGYADSVKGRFTISRDNSKNTLYLQMNSLRAEDTAVYYCARSANWHDTHLDYWGQGTLVTVSS VL: DIQMTQSPSSLSASVGDRVTITCRASQSILSYVNWYQQKPGKAPKLVIYAATSRHSGVPSRFSGSGSGTDFTLTISSLQPEDFATYYCQQSYDLPLTFGGGTKVEIK )
Completion: 2.21
